Reported values of EC50 for individual entries
TEST SYSTEM: glutathione-S-transferase (GST) tagged LXRalpha LBD (ligand binding domain) (Homo sapiens)
Construct: purchased Invitrogen pv4655
Sequence (Q13133 209-447 limits assumed): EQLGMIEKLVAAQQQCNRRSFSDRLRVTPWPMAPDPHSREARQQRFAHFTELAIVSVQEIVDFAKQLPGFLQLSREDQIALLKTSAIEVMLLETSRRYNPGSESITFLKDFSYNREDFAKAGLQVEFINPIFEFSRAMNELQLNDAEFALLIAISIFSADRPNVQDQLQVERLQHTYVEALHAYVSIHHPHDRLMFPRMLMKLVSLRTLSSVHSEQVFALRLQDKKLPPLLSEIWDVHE
ASSAY: LanthaScreen TR-FRET Liver X Receptor Coactivator Assay, co-activator recruitment to LXRalpha LBD
Format: biochemical
EXPERIMENTAL CONDITIONS: potency (Inflection Point, IP), co-activator recruitment to LXRalpha LBD, in relation to T0901317; read-out: LXR alpha IP
ASSAY READOUT: EC50 (nM)

- COMPOUND: "CCN(C)C(=O)c1ccc(N2CCC(CC3CCN(C(=O)[C@](O)(c4ccccc4)C(F)(F)F)CC3)CC2)cc1Cl"
  ASSAY READOUT: "EC50"
  RESULT UNITS: "nM"
  ASSAY RESULT: 166
- COMPOUND: "CNC(=O)c1ccc(N2CCC(CC3CCN(C(=O)[C@](O)(c4cc(F)cc(OC)c4)C(F)(F)F)CC3)CC2)nc1Cl"
  ASSAY READOUT: "EC50"
  RESULT UNITS: "nM"
  ASSAY RESULT: 75
- COMPOUND: "CN(C)C(=O)c1ccc(N2CCC(CC3CCN(C(=O)[C@](O)(c4cccc(F)c4)C(F)F)CC3)CC2)cc1Cl"
  ASSAY READOUT: "EC50"
  RESULT UNITS: "nM"
  ASSAY RESULT: 294
- COMPOUND: "CN(C)C(=O)c1ccc(N2CCC(CC3CCN(C(=O)C(O)(c4cccs4)C(F)(F)F)CC3)CC2)cc1Cl (centres unmarked)"
  ASSAY READOUT: "EC50"
  RESULT UNITS: "nM"
  ASSAY RESULT: 620
- COMPOUND: "CNC(=O)c1ccc(N2CCC(CC3CCN(C(=O)C4(c5ccccc5F)CCCC4)CC3)CC2)cc1Cl"
  ASSAY READOUT: "EC50"
  RESULT UNITS: "nM"
  ASSAY RESULT: 2190
- COMPOUND: "CNC(=O)c1ccc(N2CCC(CC3CCN(C(=O)C(O)(c4cccc(C)c4)C(F)(F)F)CC3)CC2)cc1Cl (centres unmarked)"
  ASSAY READOUT: "EC50"
  RESULT UNITS: "nM"
  ASSAY RESULT: 762
- COMPOUND: "CN(C)C(=O)c1ccc(N2CCC(CC3CCN(C(=O)[C@](O)(c4ccccc4)C(F)(F)F)CC3)CC2)nc1Cl"
  ASSAY READOUT: "EC50"
  RESULT UNITS: "nM"
  ASSAY RESULT: 158
- COMPOUND: "Cc1cccc(C(O)(C(=O)N2CCC(CC3CCN(c4ccc(C(=O)N(C)C)c(Cl)n4)CC3)CC2)C(F)(F)F)c1 (centres unmarked)"
  ASSAY READOUT: "EC50"
  RESULT UNITS: "nM"
  ASSAY RESULT: 141
- COMPOUND: "CNC(=O)c1ccc(N2CCC(CC3CCN(C(=O)C(O)(c4cccc(C(F)(F)F)c4)C(F)(F)F)CC3)CC2)cc1Cl (centres unmarked)"
  ASSAY READOUT: "EC50"
  RESULT UNITS: "nM"
  ASSAY RESULT: 784
- COMPOUND: "O=C(c1ccc(N2CCC(CC3CCN(C(=O)[C@](O)(c4ccccc4)C(F)(F)F)CC3)CC2)cc1Cl)N1CC(F)(F)C1"
  ASSAY READOUT: "EC50"
  RESULT UNITS: "nM"
  ASSAY RESULT: 984
- COMPOUND: "O=C(c1ccc(N2CCC(CC3CCN(C(=O)[C@](O)(c4ccccc4)C(F)(F)F)CC3)CC2)cc1Cl)N1CCC1"
  ASSAY READOUT: "EC50"
  RESULT UNITS: "nM"
  ASSAY RESULT: 555
